# tested.on: human α-synuclein (Homo sapiens)
# Construct: the full-length gene for untagged human α-synuclein was inserted; made in house; host or cells: E. coli BL21(DE3), plasmid derived from pT7 or pET11a
# assay.remarks: Cell-free Thioflavin T assay of α-synuclein aggregation (αSyn ThT Assay)
# Type: biochemical
# study.conditions: αSyn 50 μM; compounds at 100 μM; class symbol; read-out: αSyn ThT Assay % Inhibition (activity range)
This section presents molecules with their documented inhibition at 100 µM values.

Some solved cases for reference:
molecule="O=C(O)C1CSc2c(-c3cccc(C(F)(F)F)c3)c(Cc3cccc4ccccc34)cc(=O)n21 (single isomer, unassigned) [Compound 011a]" result="11 to 30%"
molecule="Cn1c(=O)c2c(nc(CCCCCCCN3CC(C(=O)O)n4c(c(-c5cccc(C(F)(F)F)c5)c(Cc5cccc6ccccc56)cc4=O)S3(=O)=O)n2C)n(C)c1=O (stereo not drawn) [Compound 047]" result="11 to 30%"

Sure, the documented inhibition at 100 µM for CN1CC(C(=O)O)n2c(c(-c3cccc(C(F)(F)F)c3)c(Cc3cccc4ccccc34)c(C(N)=O)c2=O)S1(=O)=O (stereo not drawn) [Compound 109] is > 60%

Sure, the documented inhibition at 100 µM for O=C(O)c1c(-c2ccccc2)sc2c(-c3cccc(C(F)(F)F)c3)c(Cc3cccc4ccccc34)cc(=O)n12 [Compound 051] is 31 to 60%

Sure, the documented inhibition at 100 µM for CNC(=O)CCCN1CC(C(=O)O)n2c(c(-c3cccc(C(F)(F)F)c3)c(Cc3cccc4ccccc34)cc2=O)S1(=O)=O (stereo not drawn) [Compound 037] is 31 to 60%

Sure, the documented inhibition at 100 µM for CCCN1CC(C(=O)O)n2c(c(-c3cccc(C(F)(F)F)c3)c(Cc3cccc4ccccc34)cc2=O)S1(=O)=O (single isomer, unassigned) [Compound 016b] is > 60%
